Measured level at 2 h by item
# TEST DESCRIPTION: in vivo
# CONDITION NOTES: male, Sprague Dawley, rat, sc, 250 ug/kg
Starred links: 1 amine or outer side, 2 acyl side, 3 side chain; linkers in the order of their positions; H or OH if unused. Non-standard residues stand in square brackets, D forms with d. Residues, ends and D or L forms follow the SMILES beside them. X10 = NCCCC[C@H](NC(=S)[C@@H](Cc1c[nH]c2ccccc12)N[*:1])C(=O)[*:2]
MEASURED PARAMETER: level at 2 h (ng/mL)

>  <MOLECULE>
C[C@@H](O)[C@@H]1NC(=O)[C@H](CCCCN)NC(=O)[C@@H](Cc2c[nH]c3ccccc23)NC(=O)[C@H](Cc2ccccc2)NC(=O)[C@@H]2CCCN2C(=O)[C@H](Cc2ccccc2)NC1=O [compound 13, cyclo(-D-Trp^1-Lys-Thr-Phe-Pro-Phe^6-)] (cyclo(PF[dW]KTF))

>  <UNIT TEXT>
ng/mL

>  <REPORTED VALUE>
8

$$$$
>  <MOLECULE>
C[C@@H](O)[C@@H]1NC(=O)[C@H](CCCCN)NC(=S)[C@@H](Cc2c[nH]c3ccccc23)NC(=O)[C@H](Cc2ccccc2)NC(=O)[C@@H]2CCCN2C(=O)[C@H](Cc2ccccc2)NC1=O [13a] (cyclo(FPF[X10]T))

>  <UNIT TEXT>
ng/mL

>  <REPORTED VALUE>
40

$$$$

* * *

# System: Caco-2 cells;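 further: Caco-2 monolayers used 21 days after seeding in HBSS-HEPES buffer with 1% DMSO, donor and acceptor levels quantified by LC-MS/MS, TEER checked before and after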
# TEST DESCRIPTION: in vitro
# Format: in vitro ADME, human
# CONDITION NOTES: Caco-2
Starred links: 1 amine or outer side, 2 acyl side, 3 side chain; linkers in the order of their positions; H or OH if unused. Non-standard residues stand in square brackets, D forms with d. Residues, ends and D or L forms follow the SMILES beside them. X1 = CC(C)C[C@H](NC(=S)[C@H](Cc1ccc(O)cc1)N[*:1])C(=O)[*:2]; X2 = CC(C)C[C@H](NC(=S)[C@@H](CC(C)C)N[*:1])C(=O)[*:2]; X4 = CC(C)C[C@H](N[*:1])C(=S)N1CCC[C@@H]1C(=O)[*:2]
Binary label based on Papp B-A set 1 (second block) with cut-off 40 ×10⁻⁶ cm/s: below gives true, not below gives false.

>  <COMPOUND>
CC(C)C[C@@H]1NC(=O)[C@H](Cc2ccc(O)cc2)NC(=O)[C@H]2CCCN2C(=S)[C@H](CC(C)C)NC(=O)[C@H](CC(C)C)NC(=O)[C@@H](CC(C)C)NC1=O [10c] (cyclo(L[dL]L[X4]Y))

>  <CLASS LABEL>
true

$$$$
>  <COMPOUND>
CC(C)C[C@@H]1NC(=O)[C@@H](CC(C)C)NC(=O)[C@H](CC(C)C)NC(=S)[C@H](Cc2ccc(O)cc2)NC(=O)[C@H]2CCCN2C(=O)[C@H](CC(C)C)NC1=O [10e] (cyclo(LL[dP][X1][dL]))

>  <CLASS LABEL>
true

$$$$
>  <COMPOUND>
CC(C)NCC(O)COc1cccc2ccccc12 (stereo not drawn) [Propranolol, reference compound]

>  <CLASS LABEL>
true

$$$$
>  <COMPOUND>
C[C@H]1O[C@@H](O[C@H]2[C@@H](O)C[C@H](O[C@H]3[C@@H](O)C[C@H](O[C@H]4CC[C@@]5(C)[C@H](CC[C@@H]6[C@@H]5C[C@@H](O)[C@]5(C)[C@@H](C7=CC(=O)OC7)CC[C@]65O)C4)O[C@@H]3C)O[C@@H]2C)C[C@H](O)[C@@H]1O [Digoxin, reference compound]

>  <CLASS LABEL>
true

$$$$
>  <COMPOUND>
CC(C)C[C@@H]1NC(=O)[C@H](Cc2ccc(O)cc2)NC(=O)[C@H]2CCCN2C(=O)[C@H](CC(C)C)NC(=O)[C@H](CC(C)C)NC(=S)[C@@H](CC(C)C)NC1=O [10a] (cyclo(L[dP]YL[X2]))

>  <CLASS LABEL>
false

$$$$
